- TESTED_TARGET: SMYD3 (Homo sapiens (Human))
- PROTOCOL_TEXT: SMYD3 biochemical assay (SPA, 3H-SAM methylation of MEKK2 protein substrate)
- CONDITION_SET: average of n = 1 to n = 50; read-out: SMYD3 Biochem IC50
- Text: S-adenosylmethionine (SAM), S-adenosylhomocysteine (SAH), Tris, Tween20, dimethylsulfoxide (DMSO), bovine skin gelatin (BSG), and Tris(2-carboxyethyl)phosphine hydrochloride solution (TCEP) were purchased from Sigma-Aldrich at the highest level of purity possible. ^3H-SAM was purchase from American Radiolabeled Chemicals with a specific activity of 80 Ci/mmol. 384-well opaque white OptiPlates and SPA beads (Perkin Elmer, catalog # RPNQ0013) were purchased from PerkinElmer. […]
Threshold check on IC50: strictly below 40 nM is rule met; on or above 40 nM is rule not met.

Below are worked cases with known answers.
- CHEM_SMILES: "C[C@H]1CN(S(=O)(=O)CC2CCNCC2)[C@@H](C)C[C@H]1NC(=O)c1cc(C2CC2)on1"
  CLASSIFICATION: "rule met"
- CHEM_SMILES: "C[C@@H]1C[C@H](NC(=O)c2cc(C3CC3)on2)CCN1C(=O)c1ccc(N2CCNCC2)nc1"
  CLASSIFICATION: "rule not met"
- CHEM_SMILES: "C[C@@H]1C[C@H](NC(=O)c2cc(C3CC3)on2)CCN1S(=O)(=O)CC1CCN(CCN2CCOCC2)CC1"
  CLASSIFICATION: "rule not met"
- CHEM_SMILES: "CNCCS(=O)(=O)N1[C@@H]2CC[C@H]1C[C@@H](NC(=O)c1cc(C3CC3)on1)C2"
  CLASSIFICATION: "rule not met"
- CHEM_SMILES: "CN1CCN(S(=O)(=O)N2[C@@H]3CC[C@H]2C[C@@H](NC(=O)c2cc(C4CC4)on2)C3)CC1"
  CLASSIFICATION: "rule met"

Note: attention shifts to another entry.
Please let me know if `CC(C)CNCCCS(=O)(=O)N1CC[C@H](NC(=O)c2cc(C3CC3)on2)C[C@@H]1C` shows IC50 below 40 nM. rule met
